The following sequences are listed with their measured PBM binding z-score values.
Tested on: VDR homodimer (NR concentration 270 nM)
assayProcedure: PBM binding z-score (relative to random genomic background probes); higher = stronger binding; sequences stand for … in GC…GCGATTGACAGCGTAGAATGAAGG

{"seqString": "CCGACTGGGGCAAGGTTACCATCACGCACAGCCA", "PBM binding z-score": -0.0347}
{"seqString": "CTACCAAGGTGAACAAGGTCGTTGTTTACTATTC", "PBM binding z-score": 2.16}
{"seqString": "ATCTCTAGGTAAAGTTCAGTAAAAGATCGATAGA", "PBM binding z-score": 2.13}
{"seqString": "CGTCCAAGGTCAGAGAGGTCAGTGATTGCCGAGT", "PBM binding z-score": 5.48}
{"seqString": "TTAGACAGGTGAAGGTAACTCAGGTACGCAGTCG", "PBM binding z-score": 0.53}
{"seqString": "ATCGAAAGGCCGAAGGTGAGTATACCCACCCGAA", "PBM binding z-score": -0.679}
{"seqString": "TCTTGTAGATCAGCAGGTTAAGACAGCTGGCCAA", "PBM binding z-score": -0.184}
{"seqString": "TTGCCTAGGTCATGCGGGCCAGTATAGTGTCGGC", "PBM binding z-score": 0.421}
{"seqString": "ATCGAAAGGTCGTGAGGTGATTATACAGAAAGGC", "PBM binding z-score": 1.07}
{"seqString": "CCTACTGGGCCAAGTTCATTGATCAGTCAAAGCA", "PBM binding z-score": 4.4}
{"seqString": "TCTCGGAGGACACAAAAGGTCAGAGCTCGACATC", "PBM binding z-score": 1.02}
{"seqString": "CGTCCATGGTCAGAGAGGTCAGTGAATGCCGAGT", "PBM binding z-score": 2.63}
{"seqString": "ATCTCTAGGTAATGTTCAGTGAAAGATCGATAGA", "PBM binding z-score": 0.364}
{"seqString": "ATCGAAAGGTCGAAGGTGAGTATTCCCACCCGAA", "PBM binding z-score": 0.282}
{"seqString": "CAAACTAGGTCACGAAAGGCCAAAGTCGAATGAC", "PBM binding z-score": 1}
{"seqString": "TCGAGTAGGTTACCAATGGGGCATTCGGCTTTCT", "PBM binding z-score": -0.411}
{"seqString": "ATCTCTAGGTAAAGTGCAGTGAAAGATCGATAGA", "PBM binding z-score": -0.0309}
{"seqString": "GATACAGAGTCAAGGCCAGAGTACGCGTATTGAT", "PBM binding z-score": -0.0653}
{"seqString": "ATCTCTCGGTAAAGATAGTTCAGTGAATGCAAAT", "PBM binding z-score": 0.334}
{"seqString": "CAGCCTCGGTCAGGGCCAGTATAGGAGGAACGTT", "PBM binding z-score": -0.875}
{"seqString": "TAGCCTAGGTCATTCAGGGCCCAGTATAGAAAGC", "PBM binding z-score": 1.54}
{"seqString": "TTACCAAGGTGAAGGGCGTTGATCCCTCTGTAGA", "PBM binding z-score": -0.115}
{"seqString": "TCGAGTAGGTTACCAATGCGGCATTCAGCTTTCT", "PBM binding z-score": -0.937}
{"seqString": "CATACTGGGCCATCAGGTCATTGATATCAACGTT", "PBM binding z-score": 2.38}
{"seqString": "AAAGACAGGTGAGTGAAGGTAACTCAGCTGGACG", "PBM binding z-score": -0.128}
{"seqString": "CATACTGGGCCATTCAGAGGTCATTGATCATATG", "PBM binding z-score": 3.67}
